Where do these numbers come from? They come from paper PMC4900566.

- ASSAY_NOTES: Pharmacokinetics of HLJDD components in rat plasma after oral administration of HLJDD (LC-QqQ-MS, non-compartmental)
- Type: in vivo, Sprague-Dawley rats
- COND: male, Sprague-Dawley, rat, plasma, po, 3.5 g/kg, normal rats (group B), oral HLJDD extract, crude material 3.5 g/kg, plasma, n = 6
compounds and their reported AUC(0-inf)
OBSERVABLE: AUC(0-inf) (ng·h/mL)

COMPOUND: COc1c(O)cc2oc(-c3ccccc3)cc(=O)c2c1O [oroxylin A]
OBSERVABLE: AUC(0-inf)
ENDPOINT_VALUE: 2.4

COMPOUND: O=C(O)[C@H]1O[C@@H](Oc2cc3oc(-c4ccccc4)cc(=O)c3c(O)c2O)[C@H](O)[C@@H](O)[C@@H]1O [baicalin]
OBSERVABLE: AUC(0-inf)
ENDPOINT_VALUE: 8130

COMPOUND: COc1ccc2cc3[n+](cc2c1OC)CCc1cc2c(cc1-3)OCO2 [berberine]
OBSERVABLE: AUC(0-inf)
ENDPOINT_VALUE: 1.8

COMPOUND: COc1c(O)cc(O)c2c(=O)cc(-c3ccccc3)oc12 [wogonin]
OBSERVABLE: AUC(0-inf)
ENDPOINT_VALUE: 7.4

* * *

- ASSAY_NOTES: Pharmacokinetics of HLJDD components in rat plasma after oral administration of HLJDD (LC-QqQ-MS, non-compartmental)
- Type: in vivo, Sprague-Dawley rats
- COND: normal rats (group B), oral HLJDD extract, crude material 3.5 g/kg, plasma, n = 6
molecules and their reported Cmax2
OBSERVABLE: Cmax2 (ng/mL)

MOLECULE: COc1c(O)cc2oc(-c3ccccc3)cc(=O)c2c1O
ENDPOINT_VALUE: 0.4
--
MOLECULE: COc1ccc2cc3[n+](cc2c1OC)CCc1cc2c(cc1-3)OCO2
ENDPOINT_VALUE: 0.1
--
MOLECULE: COc1c(O[C@@H]2O[C@H](C(=O)O)[C@@H](O)[C@H](O)[C@H]2O)cc(O)c2c(=O)cc(-c3ccccc3)oc12 [wogonoside]
ENDPOINT_VALUE: 517.7
--
MOLECULE: COc1c(O[C@@H]2O[C@H](C(=O)O)[C@@H](O)[C@H](O)[C@H]2O)cc2oc(-c3ccccc3)cc(=O)c2c1O [oroxylin A-7-O-glucuronide]
ENDPOINT_VALUE: 85.8
--
MOLECULE: COc1c(O)cc(O)c2c(=O)cc(-c3ccccc3)oc12
ENDPOINT_VALUE: 1.6
--
MOLECULE: O=C(O)[C@H]1O[C@@H](Oc2cc3oc(-c4ccccc4)cc(=O)c3c(O)c2O)[C@H](O)[C@@H](O)[C@@H]1O
ENDPOINT_VALUE: 1580.1

* * *

- ASSAY_NOTES: Pharmacokinetics of HLJDD components in rat plasma after oral administration of HLJDD (LC-QqQ-MS, non-compartmental)
- Assay type: in vivo, Sprague-Dawley rats
- COND: inflamed rats (group M), oral HLJDD extract, crude material 3.5 g/kg, plasma, n = 6
compounds and their reported Tmax2

COMPOUND: COc1c(O)cc2oc(-c3ccccc3)cc(=O)c2c1O [oroxylin A]
Tmax2: 7.0 ± 3.0 h

COMPOUND: COc1ccc2cc3[n+](cc2c1OC)CCc1cc2c(cc1-3)OCO2 [berberine]
Tmax2: 10.8 ± 2.7 h

COMPOUND: COc1c(O)cc(O)c2c(=O)cc(-c3ccccc3)oc12 [wogonin]
Tmax2: 7.3 ± 2.7 h

COMPOUND: O=C(O)[C@H]1O[C@@H](Oc2cc3oc(-c4ccccc4)cc(=O)c3c(O)c2O)[C@H](O)[C@@H](O)[C@@H]1O [baicalin]
Tmax2: 9.3 ± 2.1 h

COMPOUND: COc1c(O[C@@H]2O[C@H](C(=O)O)[C@@H](O)[C@H](O)[C@H]2O)cc2oc(-c3ccccc3)cc(=O)c2c1O [oroxylin A-7-O-glucuronide]
Tmax2: 9.6 ± 2.2 h

COMPOUND: COc1c(O[C@@H]2O[C@H](C(=O)O)[C@@H](O)[C@H](O)[C@H]2O)cc(O)c2c(=O)cc(-c3ccccc3)oc12 [wogonoside]
Tmax2: 8.7 ± 3.0 h
